test system: TSSK3; conditions: concentration: 1 μM, replicates: in singlicate; n = 1;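 also: KINOMEscan kinase panel screen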

- Molecule: "Cn1cncc1-c1cc2c(Nc3ccc(OCc4ccccc4)cc3)ncnc2cn1 [GW281179]"
  %Inh (%): 10
- Molecule: "CSc1ccc(-c2nc3n(c2-c2ccncc2)CCC3)cc1 [SKF-105561]"
  %Inh (%): 0
- Molecule: "Cc1cnc(N)c(/C=C/c2cncc(C(=O)NCCc3ccc(Cl)cc3Cl)c2)c1.Cl [GSK190937]"
  %Inh (%): 0
- Molecule: "Fc1ccc(-c2nn3cccc(F)c3c2-c2ccncc2)cc1 [GW475620]"
  %Inh (%): 14
- Molecule: "Cc1ccccc1-c1cc(-c2c[nH]nc2-c2ccccn2)ccn1 [GW680061]"
  %Inh (%): 15
- Molecule: "CN1c2ccc(-c3ccc(C(N)=O)cc3)cc2-c2[nH]ncc2S1(=O)=O"
  %Inh (%): 0

====

test system: TSSK3; details: concentration: 1 μM, replicates: in singlicate; n = 1
Cut-off 10% on %Inh, inclusive. At or above means criterion met; below means criterion not met.

- Molecule: "COc1ccc(Nc2nccc(N3CCC(NC(=O)C(C)c4ccc(Cl)cc4)C3)n2)cc1 (centres unmarked)"
  Class: "criterion met"
- Molecule: "CC[C@@H]1CO[C@H](C(=O)Nc2ccccc2)CN1c1cc(-c2ccc3c(N)n[nH]c3c2)nc(NC)n1"
  Class: "criterion met"
- Molecule: "CC(=O)c1cccc(NC(=O)NC2CCN(c3ccnc(Nc4ccc(F)cc4)n3)C2)c1 (centres unmarked)"
  Class: "criterion met"
- Molecule: "CCn1c(-c2ccccc2)nc2cnccc21"
  Class: "criterion met"
- Molecule: "Cc1ccc(NC(=O)Nc2ccc(Cl)c(C(F)(F)F)c2)cc1-c1ccc(C(=O)Nc2ccncc2)cc1"
  Class: "criterion not met"
- Molecule: "COc1cccc(NC(=O)Nc2ccc(C)c(-c3ccc(C(=O)Nc4ccncc4)cc3)c2)c1"
  Class: "criterion not met"
- Molecule: "Nc1ncnc2occ(-c3ccc4c(c3)CCN4C(=O)Cc3cc(F)ccc3F)c12"
  Class: "criterion not met"
- Molecule: "COc1nccc(-c2c(-c3ccc(F)cc3)ncn2CCCN2CCOCC2)n1"
  Class: "criterion met"

====

tested on: DDR2; conditions: concentration: 1 μM, replicates: in singlicate; n = 1
Cut-off 20% on %Inh, inclusive. At or above means 1; below means 0.

- Molecule: "CC(=O)c1cccc(NC(=O)NC2CCN(c3ccnc(Nc4ccc(F)cc4)n3)C2)c1 (stereo not shown)"
  Class: 0
- Molecule: "Nc1nccc(-c2c(-c3ccc(F)cc3)ncn2C2CCN(Cc3ccccc3)CC2)n1"
  Class: 1
- Molecule: "COc1cccc(C2=C(Nc3cc(Cl)c(O)c(Cl)c3)C(=O)NC2=O)c1"
  Class: 0
- Molecule: "Cn1cnc2c(N)ncnc21"
  Class: 1
- Molecule: "CNc1nc(-c2ccc3c(N)n[nH]c3c2)cc(N2C[C@@H](C(=O)Nc3ccccc3)CC[C@H]2C)n1"
  Class: 0
- Molecule: "Cc1c(Cn2c3ccccc3n3c(=O)cc(N4CCOCC4)nc23)cccc1C(F)(F)F"
  Class: 0
- Molecule: "COc1cccc(NC(=O)Nc2ccc(C)c(-c3ccc(C(=O)Nc4ccncc4)cc3)c2)c1"
  Class: 1
- Molecule: "COc1ccc(CSc2nnc(-c3ccc4nccn4c3)o2)cc1C(F)(F)F"
  Class: 0
- Molecule: "Cc1ccc(-c2nc(Nc3ccncc3)c3ccccc3n2)s1"
  Class: 0
- Molecule: "Fc1ccc(-c2nc3n(c2-c2ccncc2)CCS3)cc1"
  Class: 1
- Molecule: "Nc1ncnc2occ(-c3ccc4c(c3)CCN4C(=O)Cc3cc(F)ccc3F)c12"
  Class: 1
- Molecule: "Nc1cccc(-c2ccc3c(N)n[nH]c3c2)n1"
  Class: 0
- Molecule: "COC(=O)C(Cc1ccccc1)NC(=O)NC1CCN(c2ccnc(Nc3ccc(F)cc3)n2)C1 (stereo not shown)"
  Class: 1
- Molecule: "CSc1ccc(-c2nc3n(c2-c2ccncc2)CCC3)cc1"
  Class: 1
- Molecule: "CS(=O)(=O)Cc1ccc(Nc2nccc(-c3c(-c4cccc(NC(=O)C5CCCCC5)c4)nn4ncccc34)n2)cc1"
  Class: 1
- Molecule: "Cn1cncc1C(=O)NC1CCN(c2ccnc(Nc3ccc(F)cc3)n2)C1 (stereo not shown)"
  Class: 0
- Molecule: "Cc1cnc(N)c(/C=C/c2cncc(C(=O)NCCc3ccc(Cl)cc3Cl)c2)c1.Cl"
  Class: 1
- Molecule: "CNC(=O)c1ccc(C)c(-n2c(C)cc(OCc3ccc(F)cc3F)c(Br)c2=O)c1"
  Class: 0
- Molecule: "Cc1ccccc1Cn1ccn2c(=O)cc(N3CCOCC3)nc12"
  Class: 0
